tested on: Mycobacterium tuberculosis; experiment: Antimycobacterial activity against Mycobacterium bovis BCG after 5 days by MTT assay; format: functional, organism-based; details: variant bovis BCG, 120 h

smiles_string: COc1nc(N)nc2c1c(-c1ccsc1)cn2[C@@H]1O[C@H](CO)[C@@H](O)[C@H]1O
IC50: > 100 µM
--
smiles_string: C#Cc1cn([C@@H]2O[C@H](CO)[C@@H](O)[C@H]2O)c2ncnc(OC)c12
IC50: > 100 µM
--
smiles_string: COc1ncnc2c1c(-c1ccsc1)cn2[C@@H]1O[C@H](CO)[C@@H](O)[C@H]1O
IC50: > 100 µM
--
smiles_string: O=c1[nH]cnc2c1c(-c1ccoc1)cn2[C@@H]1O[C@H](CO)[C@@H](O)[C@H]1O
IC50: > 100 µM
--
smiles_string: CNc1ncnc2c1c(-c1cccs1)cn2[C@@H]1O[C@H](CO)[C@@H](O)[C@H]1O
IC50: > 100 µM
--
smiles_string: COc1ncnc2c1ccn2[C@@H]1O[C@H](CO)[C@@H](O)[C@H]1O
IC50: > 100 µM
--
smiles_string: O=c1[nH]cnc2c1c(-c1cc3ccccc3o1)cn2[C@@H]1O[C@H](CO)[C@@H](O)[C@H]1O
IC50: > 100 µM
--
smiles_string: Cc1ncnc2c1c(-c1ccccc1)cn2[C@@H]1O[C@H](CO)[C@@H](O)[C@H]1O
IC50: 26.5 µM
--
smiles_string: Nc1nc2c(c(-c3ccco3)cn2[C@@H]2O[C@H](CO)[C@@H](O)[C@H]2O)c(=O)[nH]1
IC50: > 100 µM
--
smiles_string: CSc1ncnc2c1c(-c1ccsc1)cn2[C@@H]1O[C@H](CO)[C@@H](O)[C@H]1O
IC50: 98.6 µM
--
smiles_string: Nc1nc(N)c2c(-c3ccsc3)cn([C@@H]3O[C@H](CO)[C@@H](O)[C@H]3O)c2n1
IC50: > 100 µM
--
smiles_string: Cc1nc(N)c2c(I)cn([C@@H]3O[C@H](CO)[C@@H](O)[C@H]3O)c2n1
IC50: > 100 µM
--
smiles_string: C#Cc1cn([C@@H]2O[C@H](CO)[C@@H](O)[C@H]2O)c2ncnc(N(C)C)c12
IC50: > 100 µM
--
smiles_string: CN(C)c1ncnc2c1c(-c1cccs1)cn2[C@@H]1O[C@H](CO)[C@@H](O)[C@H]1O
IC50: > 100 µM
--
smiles_string: C#Cc1cn([C@@H]2O[C@H](CO)[C@@H](O)[C@H]2O)c2ncnc(NC)c12
IC50: > 100 µM
--
smiles_string: Cc1nc(N)c2c(-c3ccco3)cn([C@@H]3O[C@H](CO)[C@@H](O)[C@H]3O)c2n1
IC50: > 100 µM
--
smiles_string: CSc1ncnc2c1c(-c1cc3ccccc3o1)cn2[C@@H]1O[C@H](CO)[C@@H](O)[C@H]1O
IC50: > 100 µM
--
smiles_string: CN(C)c1ncnc2c1c(-c1ccsc1)cn2[C@@H]1O[C@H](CO)[C@@H](O)[C@H]1O
IC50: > 100 µM
--
smiles_string: COc1ncnc2c1c(-c1cc3ccccc3o1)cn2[C@@H]1O[C@H](CO)[C@@H](O)[C@H]1O
IC50: 73.5 µM
--
smiles_string: COc1ncnc2c1c(-c1ccccc1)cn2[C@@H]1O[C@H](CO)[C@@H](O)[C@H]1O
IC50: > 100 µM
--
smiles_string: Nc1nc(N)c2c(-c3ccccc3)cn([C@@H]3O[C@H](CO)[C@@H](O)[C@H]3O)c2n1
IC50: 8.53 µM
--
smiles_string: Cc1ncnc2c1ccn2[C@@H]1O[C@H](CO)[C@@H](O)[C@H]1O
IC50: 0.3 µM
--
smiles_string: Cc1nc(N)c2c(-c3cccs3)cn([C@@H]3O[C@H](CO)[C@@H](O)[C@H]3O)c2n1
IC50: 82.7 µM
--
smiles_string: COc1ncnc2c1c(-c1ccoc1)cn2[C@@H]1O[C@H](CO)[C@@H](O)[C@H]1O
IC50: > 100 µM
--
smiles_string: Nc1ncnc2c1c(-c1ccco1)cn2[C@@H]1O[C@H](CO)[C@@H](O)[C@H]1O
IC50: 17.4 µM
--
smiles_string: CNc1ncnc2c1ccn2[C@@H]1O[C@H](CO)[C@@H](O)[C@H]1O
IC50: 87.1 µM
--
smiles_string: Nc1nc(N)c2c(-c3cccs3)cn([C@@H]3O[C@H](CO)[C@@H](O)[C@H]3O)c2n1
IC50: 2.44 µM
--
smiles_string: C#Cc1cn([C@@H]2O[C@H](CO)[C@@H](O)[C@H]2O)c2ncnc(C)c12
IC50: 42.9 µM
--
smiles_string: CNc1ncnc2c1c(-c1ccsc1)cn2[C@@H]1O[C@H](CO)[C@@H](O)[C@H]1O
IC50: > 100 µM
--
smiles_string: CSc1ncnc2c1c(-c1ccco1)cn2[C@@H]1O[C@H](CO)[C@@H](O)[C@H]1O
IC50: > 100 µM
--
smiles_string: CN(C)c1ncnc2c1c(-c1ccco1)cn2[C@@H]1O[C@H](CO)[C@@H](O)[C@H]1O
IC50: > 100 µM
--
smiles_string: COc1nc(N)nc2c1c(-c1cc3ccccc3o1)cn2[C@@H]1O[C@H](CO)[C@@H](O)[C@H]1O
IC50: > 100 µM
--
smiles_string: C#Cc1cn([C@@H]2O[C@H](CO)[C@@H](O)[C@H]2O)c2ncnc(SC)c12
IC50: > 100 µM
--
smiles_string: CN(C)c1ncnc2c1c(-c1ccoc1)cn2[C@@H]1O[C@H](CO)[C@@H](O)[C@H]1O
IC50: > 100 µM
--
smiles_string: CSc1ncnc2c1ccn2[C@@H]1O[C@H](CO)[C@@H](O)[C@H]1O
IC50: 96.8 µM
--
smiles_string: COc1nc(N)nc2c1c(-c1cccs1)cn2[C@@H]1O[C@H](CO)[C@@H](O)[C@H]1O
IC50: > 100 µM
